Values compiled from ChEMBL document CHEMBL3997794.

target: Protein deacetylase HDAC6 (Homo sapiens); settings: at 30 µM
Sequence (Q9UBN7 whole entry): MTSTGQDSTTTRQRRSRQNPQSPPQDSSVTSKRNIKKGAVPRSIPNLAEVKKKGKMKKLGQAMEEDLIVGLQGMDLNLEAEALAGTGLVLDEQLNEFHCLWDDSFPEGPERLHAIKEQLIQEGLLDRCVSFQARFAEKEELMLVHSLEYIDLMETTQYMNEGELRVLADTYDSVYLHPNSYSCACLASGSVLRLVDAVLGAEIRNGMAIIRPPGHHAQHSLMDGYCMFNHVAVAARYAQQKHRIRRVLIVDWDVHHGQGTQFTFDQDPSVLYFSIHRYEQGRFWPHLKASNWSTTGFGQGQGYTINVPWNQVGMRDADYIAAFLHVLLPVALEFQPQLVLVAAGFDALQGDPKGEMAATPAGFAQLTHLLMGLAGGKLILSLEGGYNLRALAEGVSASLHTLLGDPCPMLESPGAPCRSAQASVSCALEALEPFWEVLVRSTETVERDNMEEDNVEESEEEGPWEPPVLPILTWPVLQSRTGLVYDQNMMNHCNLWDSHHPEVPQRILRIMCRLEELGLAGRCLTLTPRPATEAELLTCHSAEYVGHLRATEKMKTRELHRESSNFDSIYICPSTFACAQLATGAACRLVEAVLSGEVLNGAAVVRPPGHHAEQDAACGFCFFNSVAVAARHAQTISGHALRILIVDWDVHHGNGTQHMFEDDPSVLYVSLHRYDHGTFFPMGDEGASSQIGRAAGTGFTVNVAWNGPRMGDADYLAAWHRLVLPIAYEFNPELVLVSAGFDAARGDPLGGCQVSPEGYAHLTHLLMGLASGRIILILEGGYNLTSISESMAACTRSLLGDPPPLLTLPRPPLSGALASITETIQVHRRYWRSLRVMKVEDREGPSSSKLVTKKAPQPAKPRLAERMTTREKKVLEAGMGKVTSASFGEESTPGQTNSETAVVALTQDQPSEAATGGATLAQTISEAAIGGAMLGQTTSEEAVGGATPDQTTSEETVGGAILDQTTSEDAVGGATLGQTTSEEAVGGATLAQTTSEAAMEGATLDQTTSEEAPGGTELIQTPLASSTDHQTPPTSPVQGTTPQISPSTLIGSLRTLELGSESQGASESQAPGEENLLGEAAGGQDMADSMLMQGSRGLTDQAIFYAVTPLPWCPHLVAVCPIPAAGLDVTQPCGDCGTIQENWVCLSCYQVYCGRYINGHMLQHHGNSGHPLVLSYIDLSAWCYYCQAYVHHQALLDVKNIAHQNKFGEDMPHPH
Description: Inhibition of human KDAC6 at 30 uM using FITC-labeled histone H4 acetylated peptide as substrate after 60 mins by fluorescence assay relative to control
# inhibition >= 90% gives MET, anything below gives NOT MET

record_smiles=NC(=O)CC[C@@H]1N=C(c2ccccc2)c2ccccc2N(CCCCC(=O)NO)C1=O class_name=MET
record_smiles=O=C(CCCNC(=O)C[C@@H]1N=C(c2ccccc2)c2ccccc2NC1=O)NO class_name=MET
record_smiles=CSCC[C@@H]1N=C(c2ccccc2)c2ccccc2NC1=O class_name="NOT MET"
record_smiles=O=C(CCCNC(=O)CC[C@@H]1N=C(c2ccccc2)c2ccccc2NC1=O)NO class_name="NOT MET"
record_smiles=CC(C)(C)OC[C@@H]1N=C(c2ccccc2)c2ccccc2N(CCCCC(=O)O)C1=O class_name="NOT MET"
record_smiles=C[C@@H]1N=C(c2ccccc2)c2ccccc2N(CCCCC(=O)NO)C1=O class_name=MET
record_smiles=O=C(CCCCN1C(=O)CN=C(c2ccccc2)c2ccccc21)NO class_name=MET
record_smiles=CC(C)(C)OC(=O)CC[C@H]1N=C(c2ccccc2)c2ccccc2NC1=O class_name="NOT MET"
record_smiles=CC(C)[C@@H]1N=C(c2ccccc2)c2ccccc2N(CCCCC(=O)NO)C1=O class_name=MET
record_smiles=COC(=O)CCCCN1C(=O)[C@H](Cc2ccc(OC(C)(C)C)cc2)N=C(c2ccccc2)c2ccccc21 class_name="NOT MET"

---

molecular target: Histone deacetylase 1 (Homo sapiens, UniProt Q13547); assay: Inhibition of human KDAC1 using substrate A after 60 mins by fluorescence assay
Sequence (Q13547 whole entry): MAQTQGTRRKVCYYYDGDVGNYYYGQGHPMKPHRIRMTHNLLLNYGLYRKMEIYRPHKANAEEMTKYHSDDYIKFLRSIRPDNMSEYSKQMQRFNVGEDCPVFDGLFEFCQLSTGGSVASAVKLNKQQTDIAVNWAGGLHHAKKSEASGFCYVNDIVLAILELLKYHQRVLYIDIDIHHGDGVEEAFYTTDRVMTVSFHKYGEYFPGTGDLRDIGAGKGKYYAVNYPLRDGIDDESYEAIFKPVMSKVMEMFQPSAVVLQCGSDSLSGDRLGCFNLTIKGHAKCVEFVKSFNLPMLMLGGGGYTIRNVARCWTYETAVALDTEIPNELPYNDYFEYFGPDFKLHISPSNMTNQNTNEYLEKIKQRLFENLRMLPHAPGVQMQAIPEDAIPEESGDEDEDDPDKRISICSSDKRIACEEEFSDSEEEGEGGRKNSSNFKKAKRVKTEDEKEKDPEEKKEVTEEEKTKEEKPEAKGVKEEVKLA
quantity-measured: IC50

record_smiles=CC(C)(C)OC(=O)C[C@@H]1N=C(c2ccccc2)c2ccccc2N(CCCCC(=O)NO)C1=O measured_result="15.7 µM"
record_smiles=O=C(O)C[C@@H]1N=C(c2ccccc2)c2ccccc2NC1=O measured_result="> 30 µM"
record_smiles=COC(=O)CCCCN1C(=O)[C@H](Cc2ccccc2)N=C(c2ccccc2)c2ccccc21 measured_result="> 30 µM"
record_smiles=COC(=O)CCCCN1C(=O)[C@H](COC(C)(C)C)N=C(c2ccccc2)c2ccccc21 measured_result="> 30 µM"
record_smiles=CC[C@H](C)[C@@H]1N=C(c2ccccc2)c2ccccc2NC1=O measured_result="> 30 µM"
record_smiles=CC[C@H](C)[C@@H]1N=C(c2ccccc2)c2ccccc2N(CCCCC(=O)O)C1=O measured_result="> 30 µM"
record_smiles=CC(C)(C)SC[C@H]1N=C(c2ccccc2)c2ccccc2N(CCCCC(=O)NO)C1=O measured_result="7.99 µM"
record_smiles=CC(C)(C)Oc1ccc(C[C@@H]2N=C(c3ccccc3)c3ccccc3N(CCCCC(=O)NO)C2=O)cc1 measured_result="6.18 µM"
record_smiles=COC(=O)CCCCN1C(=O)[C@H](C(C)C)N=C(c2ccccc2)c2ccccc21 measured_result="> 30 µM"

---

molecular target: Protein deacetylase HDAC6 (Homo sapiens)
pIC50: −log10 of the molar value.
The compounds listed here are annotated with their pIC50.
quantity-measured: pIC50

record_smiles=COC(=O)CCCCN1C(=O)[C@H](COC(C)(C)C)N=C(c2ccccc2)c2ccccc21 measured_result="< 4.52"
record_smiles=COC(=O)CCCCN1C(=O)[C@H](Cc2ccc(OC(C)(C)C)cc2)N=C(c2ccccc2)c2ccccc21 measured_result="< 4.52"
record_smiles=O=C(O)CCCCN1C(=O)[C@H](Cc2ccccc2)N=C(c2ccccc2)c2ccccc21 measured_result="< 4.52"
record_smiles=O=C(C[C@@H]1N=C(c2ccccc2)c2ccccc2NC1=O)NO measured_result="< 4.52"
record_smiles=O=C(CCCCN1C(=O)[C@H](Cc2cnc[nH]2)N=C(c2ccccc2)c2ccccc21)NO measured_result=5.30
record_smiles=Cc1c(C)c(S(=O)(=O)NC(=N)NCCC[C@@H]2N=C(c3ccccc3)c3ccccc3N(CCCCC(=O)NO)C2=O)c(C)c2c1OC(C)(C)C2 measured_result=4.79
record_smiles=O=C(CCCCN1C(=O)CN=C(c2ccccc2)c2ccccc21)NO measured_result=5.72
record_smiles=O=C(O)CC[C@H]1N=C(c2ccccc2)c2ccccc2NC1=O measured_result="< 4.52"
record_smiles=CC(C)C[C@@H]1N=C(c2ccccc2)c2ccccc2N(CCCCC(=O)O)C1=O measured_result="< 4.52"
record_smiles=CC(C)(C)OC(=O)C[C@@H]1N=C(c2ccccc2)c2ccccc2NC1=O measured_result="< 4.52"
record_smiles=CC[C@H](C)[C@@H]1N=C(c2ccccc2)c2ccccc2N(CCCCC(=O)O)C1=O measured_result="< 4.52"
record_smiles=CC(C)(C)OC(=O)n1c(C[C@@H]2N=C(c3ccccc3)c3ccccc3N(CCCCC(=O)NO)C2=O)cc2ccccc21 measured_result=5.16
record_smiles=O=C1Nc2ccccc2C(c2ccccc2)=N[C@H]1Cc1ccccc1 measured_result="< 4.52"
record_smiles=CC(C)(C)OC(=O)C[C@@H]1N=C(c2ccccc2)c2ccccc2N(CCCCC(=O)NO)C1=O measured_result=5.19
record_smiles=CC(C)(C)SC[C@H]1N=C(c2ccccc2)c2ccccc2N(CCCCC(=O)O)C1=O measured_result="< 4.52"
record_smiles=COC(=O)CCCCN1C(=O)[C@H](CCSC)N=C(c2ccccc2)c2ccccc21 measured_result="< 4.52"
record_smiles=O=C(CCCCN1C(=O)[C@H](CC(=O)NO)N=C(c2ccccc2)c2ccccc21)NO measured_result="< 4.52"
record_smiles=COC(=O)CCCCN1C(=O)[C@H](Cc2ccccc2)N=C(c2ccccc2)c2ccccc21 measured_result="< 4.52"
record_smiles=O=C(O)CCCCN1C(=O)CN=C(c2ccccc2)c2ccccc21 measured_result="< 4.52"
